System tested: OprF outer membrane protein on P. stutzeri cells (P. stutzeri)
Assay protocol: fluorometry at 525 nm of 1x10^9 P. stutzeri cells labeled with peptide-QD525 conjugate
# key: entry, value: Fluorescence (RFU)
Write the answer as a number in RFU, unit excluded.

Below are worked cases with known answers.
Binder	U	Fluorescence (RFU)
QITLRST (conjugated to a quantum dot (QD525)) [OBP7 peptide-quantum dot conjugate]	RFU	2620
NMTNPPP (conjugated to a quantum dot (QD525)) [OBP6 peptide-quantum dot conjugate]	RFU	2080
QMLLRLP (conjugated to a quantum dot (QD525)) [OBP9 peptide-quantum dot conjugate]	RFU	3340

Task: Recorded Fluorescence (RFU) of RRSNSQL (conjugated to a quantum dot (QD525)) [OBP4 peptide-quantum dot conjugate] , please.
Result: 4520
